Test system: unfractionated heparin (UFH)
method: aPTT clotting assay, UFH 0.2 U/mL in plasma (Example 7)
Type: biochemical
protocol.conditions: UFH 0.2 U/mL in plasma

compound	value.unit	UFH (aPTT) EC50
COc1ccc(NC(=O)[C@@H](CCCNC(=N)N)NC(=O)c2cc(NC(=O)[C@@H](CCCNC(=N)N)NC(=O)c3cc(NC(=O)[C@@H](CCCNC(=N)N)NC(=O)c4cc(NC(=O)[C@H](N)CCCNC(=N)N)ccc4OC)ccc3OC)ccc2OC)cc1C(N)=O [Compound 135]	µg/mL	2.79
COc1ccc(NC(=O)[C@@H](CCCNC(=N)N)NC(=O)c2cc(NC(=O)[C@@H](CCCNC(=N)N)NC(=O)c3cc(NC(=O)[C@H](CCCNC(N)=O)NC(=O)c4cc(NC(=O)[C@H](N)CCCNC(=N)N)ccc4OC)ccc3OC)ccc2OC)cc1C(N)=O [Compound 83]	µg/mL	4.73
COc1ccc(NC(=O)[C@H](CCCCN)NC(=O)c2cc(NC(=O)[C@H](CCCCN)NC(=O)c3cc(OC(=O)[C@@H](N)CCCCN)ccc3OC)ccc2OC)cc1C(=O)N[C@@H](CCCCN)C(=O)Nc1ccc(OCC(=O)O)c(C(N)=O)c1 [Compound 116]	µg/mL	3.10
COc1ccc(NC(=O)[C@H](CCCCN)NC(=O)c2cc(NC(=O)[C@H](CCCCN)NC(=O)c3cc(NC(=O)[C@H](CCCCN)NC(=O)c4cnc(N)s4)ccc3OC)ccc2OC)cc1C(N)=O [Compound 131]	µg/mL	3.68

----------
Test system: unfractionated heparin (UFH)
method: aPTT clotting assay, UFH 0.2 U/mL in plasma (Example 7)
Format: biochemical
protocol.conditions: UFH 0.2 U/mL in plasma
Starred links: 1 amine or outer side, 2 acyl side, 3 side chain; linkers in the order of their positions; H or OH if unused. Non-standard residues stand in square brackets, D forms with d. Residues, ends and D or L forms follow the SMILES beside them. *: point of attachment. NH(3-CONH2-4-OMe-phenyl) = COc1ccc(N*)cc1C(N)=O; 3Abz(6-OMe) = COc1ccc(N[*:1])cc1C(=O)[*:2]
UFH (aPTT) EC50 under 3 µg/mL gets 1 (yes), anything at or over 3 µg/mL gets 0 (no).

compound	classification
COc1ccc(NC(=O)[C@H](CCCCN)NC(=O)c2cc(NC(=O)[C@H](CCCCN)NC(=O)c3cc(NC(=O)[C@H](CCCNC(N)=O)NC(=O)c4cc(NC(=O)[C@@H](N)CCCCN)ccc4OC)ccc3OC)ccc2OC)cc1C(N)=O	1 (yes)
COc1ccc(NC(=O)[C@H](CCCCN)NC(=O)c2cc(NC(=O)[C@H](CCCCN)NC(=O)c3cc(NC(=O)[C@H](CCCCN)NC(=O)c4cc(NC(=O)[C@@H](N)CCCCN)ccc4OC)ccc3OC)ccc2OC)cc1C(=O)N[C@@H](Cc1c[nH]c2ccccc12)C(=O)O	0 (no)
COc1ccc(NC(=O)[C@H](CCCCN)NC(=O)c2cc(NC(=O)[C@@H](N)CCCCN)ccc2OC)cc1C(=O)N[C@@H](CCCCN)C(=O)Nc1ccc(OC)c(C(=O)N[C@@H](CCCCN)C(=O)Nc2ccc(SC)c(C(N)=O)c2)c1	1 (yes)
COc1ccc(NC(=O)[C@@H](CCCNC(=N)N)NC(=O)c2cc(NC(=O)[C@@H](CCCNC(=N)N)NC(=O)[C@H](C)NC(=O)c3cc(NC(=O)[C@@H](CCCNC(=N)N)NC(=O)c4cc(NC(=O)[C@H](N)CCCNC(=N)N)ccc4OC)ccc3OC)ccc2OC)cc1C(N)=O [Compound 74] (H-[dR][3Abz(6-OMe)][dR][3Abz(6-OMe)]A[dR][3Abz(6-OMe)][dR]-{NH(3-CONH2-4-OMe-phenyl)})	0 (no)
COc1cc(OC)c(C(=O)N[C@H]2CC[C@H](NC(=O)c3cc(C(=O)NCCN(C)C)c(OCCCCCNC(=N)N)cc3OCCCCCNC(=N)N)CC2)cc1C(=O)N[C@H]1CC[C@@H](NC(=O)c2cc(C(=O)NCCN(C)C)c(OCCCCCNC(=N)N)cc2OCCCCCNC(=N)N)CC1	0 (no)
N=C(N)NCCC[C@@H](N)C(=O)Nc1cccc(C(=O)N[C@H](CCCNC(=N)N)C(=O)Nc2cccc(C(=O)N[C@H](CCCNC(=N)N)C(=O)Nc3cccc(C(=O)N[C@H](CCCNC(=N)N)C(=O)Nc4cccc(C(N)=O)n4)n3)n2)n1	0 (no)
COc1ccc(NC(=O)[C@@H](CCCCN)NC(=O)c2cc(NC(=O)[C@@H](CCCCN)NC(=O)c3cc(NC(=O)[C@@H](CCCCN)NC(=O)c4cc(NC(=O)[C@H](N)CCCCN)ccc4OC)ccc3OC)ccc2OC)cc1C(N)=O	1 (yes)
COC(=O)c1cc(NC(=O)[C@H](CCCCN)NC(=O)c2cc(NC(=O)[C@H](CCCCN)NC(=O)c3cc(NC(=O)[C@H](CCCCN)NC(=O)c4cc(NC(=O)[C@@H](N)CCCCN)ccc4OC)ccc3OC)ccc2OC)ccc1OC	1 (yes)
COc1ccc(NC(=O)[C@@H](CCCNC(=N)N)NC(=O)c2cc(NC(=O)[C@@H](CCCNC(=N)N)NC(=O)c3cc(NC(=O)[C@H](N)CCCNC(=N)N)ccc3OC)ccc2OC)cc1C(=O)N[C@H](CCCNC(=N)N)C(N)=O	1 (yes)
COc1ccc(NC(=O)[C@H](CCCCN)NC(=O)c2cc(NC(=O)[C@H](CCCCN)NC(=O)c3cc(NC(=O)[C@H](CCCCN)NC(=O)c4cc(NC(=O)[C@@H](N)CCCCN)ccc4OC)ccc3OC)ccc2OC)cc1C(N)=O [Compound 90]	1 (yes)
COc1ccc(NC(=O)[C@H](CCCCN)NC(=O)c2cc(NC(=O)[C@H](CCCCN)NC(=O)c3cc(NC(=O)[C@H](CCCCN)NC(=O)c4cc(NC(=O)[C@@H](N)CCCCN)ccc4OC)ccc3OC)ccc2OC)cc1C(=O)NCCC(=O)O	1 (yes)
CSc1ccc(NC(=O)[C@H](CCCNC(=N)N)NC(=O)c2cc(NC(=O)[C@H](CCCNC(=N)N)NC(=O)c3cc(NC(=O)[C@H](CCCNC(=N)N)NC(=O)c4cc(NC(=O)[C@@H](N)CCCNC(=N)N)ccc4SC)ccc3SC)ccc2SC)cc1C(N)=O	0 (no)

----------
method: Cytotoxicity colorimetric assay, HepG2
Assay type: cell-based, human
protocol.conditions: human, HepG2 cells, one hour in serum-free media
Method: This assay measures the bioreduction of a novel tetrazolium compound to a soluble formazan product by viable cells. HepG2 cells were seeded in 96 well plates at 3×10^4 cells/well in MEM medium with 10% fetal bovine serum (FBS) 24 hours prior to use. […] After incubation, the media was replaced with serum supplemented media and live cells were measured using the Cell Titer 96 Aqueous […] Assay kit (Promega, Madison, Wis.). […]
Catalogue of EC50 at 1 h values

molecule	bound.type	EC50 at 1 h [µg/mL]
COc1cc(OC)c(C(=O)NC2CCC(NC(=O)c3cc(C(=O)NCCN)c(OC)cc3OC)CC2)cc1C(=O)O (centres unmarked) [Compound 347]	>	1000
COc1ccc(NC(=O)[C@H](CCCCN)NC(=O)c2cc(NC(=O)[C@H](CCCCN)NC(=O)c3cc(NC(=O)[C@H](CCCCN)NC(=O)c4cc(NC(=O)[C@@H](N)CCCCN)ccc4OC)ccc3OC)ccc2OC)cc1C(=O)N[C@@H](Cc1ccccc1)C(=O)O [Compound 263]	=	255
COc1ccc(NC(=O)[C@H](CCCNC(=N)N)NC(=O)c2cc(NC(=O)[C@H](CCCNC(=N)N)NC(=O)c3cc(NC(=O)[C@H](CCCNC(=N)N)NC(=O)c4cc(NC(=O)[C@@H](N)CCCNC(=N)N)ccc4OC)ccc3OC)ccc2OCC(=O)O)cc1C(=O)N[C@@H](Cc1c[nH]c2ccccc12)C(N)=O [Compound 311]	=	1000
COc1cc(OC)c(C(=O)Nc2ccc(NC(=O)c3cc(C(=O)NCCN(C)C)c(OCCCCCN)cc3OCCCCCN)cc2)cc1C(=O)Nc1ccc(NC(=O)c2cc(C(=O)NCCN(C)C)c(OCCCCCN)cc2OCCCCCN)cc1 [Compound 410]	=	250
COc1ccc(NC(=O)[C@H](CCCCN)NC(=O)c2cc(NC(=O)[C@H](CCCCN)NC(=O)c3cc(NC(=O)[C@H](CCCCN)NC(=O)c4cc(NC(=O)[C@H](CCCCN)NC(=O)Cc5ccccc5)ccc4OC)ccc3OC)ccc2OC)cc1C(N)=O [Compound 355]	=	133
COc1ccc(NC(=O)[C@@H](CCCNC(=N)N)NC(=O)c2cc(NC(=O)[C@@H](CCCNC(=N)N)NC(=O)c3cc(NC(=O)[C@@H](CCCNC(=N)N)NC(=O)c4cc(NC(C)=O)ccc4OC)ccc3OC)ccc2OC)cc1C(=O)N[C@H](Cc1ccc(O)cc1)C(=O)O [Compound 297]	=	300
COc1ccc(NC(=O)[C@H](CCCCN)NC(=O)c2cc(NC(=O)[C@H](CCCCN)NC(=O)c3cc(NC(=O)[C@H](CCCCN)NC(=O)c4cc(NC(=O)[C@H](CCCCN)NC(=O)c5ccccc5)ccc4OC)ccc3OC)ccc2OCC(=O)O)cc1C(N)=O [Compound 354]	>	1000
COc1ccc(NC(=O)[C@@H](CCCNC(=N)N)NC(=O)c2cc(NC(=O)[C@@H](CCCNC(=N)N)NC(=O)c3cc(NC(=O)[C@@H](CCCNC(=N)N)NC(=O)c4cc(NC(=O)[C@H](N)CCCNC(=N)N)ccc4OC)ccc3OC)ccc2OCC(=O)O)cc1C(N)=O [Compound 281]	=	1000
